test: Components of the Cytosolic LPS Sensing Pathway: Gene Identification via Genome-wide siRNA Screen; settings: RAW264.7 macrophages, IL-1a HTRF, actives lie on both sides, screened at 100 nM (by protocol), cells primed 5 h with Pam3CSK4 first
Out of some 53,000 sequences screened, about 3,700 (7%) were called active. Many of the other results were omitted from the sample, so actives are more common in it than they were.
Just so you know, the groups by z-score go like this: low (below -0.5), middle (-0.5 to below -0.03), high (-0.03 or more)

residue_string	category_label
GGAGAGGAAAAUUGUAUUUTT against Alox12	middle
GGAUCUGAAGGUGAUGUCATT against H2-Q10	low
GGGAAACAAAAAAGAUUUCTT against Ptpn13	high
GCAUCAAUUCCCAAACCUUTT against Selenov	high
CCCAUGGAAAUCCUCAGUATT against Ctsa	low
GGGCUAAAGCCUUCAACACTT against Olfr923	high
CGAGUUCAUCAAAAAGGAATT against Kansl1l	high
GGGUCUUAUCUCGAUGAGGTT against Flt3l	middle
CCUGCAAAUGAUACCACCGTT against Olfr734	middle
CCAUUAUCCUGGUGUGUAUTT against Olfr1362	middle
CGAAAAGGUGGACUUUUAGTT against Rnf4	low
CUUUAUGGGUCGUGGAGGATT against Hnrnpa3	low

====

test: Components of the Cytosolic LPS Sensing Pathway: Gene Identification via Genome-wide siRNA Screen; conditions: RAW264.7 macrophages, IL-1a HTRF, actives lie on both sides, screened at 100 nM (by protocol), cells primed 5 h with Pam3CSK4 first
Out of some 53,000 sequences screened, about 3,700 (7%) were called active. The full list was thinned out, with actives kept by preference.
reported_property: z-score

residue_string	recorded_number
GGAGUCGAAUCUUCUCUAATT against Taco1	-1.07
GGAAAAGCAAGAGGAAAGATT against Ifnb1	2.39
GGUUAAAUGCCCGCCAACATT against Eif2ak4	-0.876
GCCAAACUAUCAGAGAUGGTT against Slc38a7	0.0528
CCAAGUUCACAAUUGUUCUTT against Gimap8	-0.263
GCCCUACCAAAGACACUAGTT against Lrch4	-2.31
CCAUCCUCCUACUCGUUAGTT against Vmn1r233	2.03
CCCGCUUGUUCUGAUGAUATT against 2310039H08Rik	-2.26
CCAGAUGACAAUGAGUCAGTT against Ss18	-0.197
GCGAAUCAGCACUUAUGGATT against Cd2ap	2.65
CCUAAGGUACCAUUUUAAATT against Clp1	0.225
GGAGUAUCGUAAUGCGGACTT against C4b	0.598

====

assay: Components of the Cytosolic LPS Sensing Pathway: Gene Identification via Genome-wide siRNA Screen; conditions: RAW264.7 macrophages, IL-1a HTRF, actives lie on both sides, screened at 100 nM (by protocol), cells primed 5 h with Pam3CSK4 first;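 further: robust z of the log signal after scaling to non-targeting control siRNA wells of the plate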
The whole screen tested about 53,000 sequences, of which about 3,700 (7%) were called active.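 How the source made its calls: active means gene knockdowns whose robust z-score for IL-1 alpha signal is at least 2 or at most -2, so actives lie on both sides; inactive means the rest.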 Shown is part of a subset that was picked to be rich in actives.
Labels: active, inactive

residue_string	category_label
GGACAGAUGGAAUAGUGAATT against Klra10	inactive
GCAGCUCCCAAUCUCACUUTT against Ankrd34a	inactive
GUGGCGAUAUCCAGAGAUGTT against Vmn1r18	inactive
CCCAUAUUAAUUAUGGCGUTT against Hadha	inactive
GGUUCCUUAAUUUAUUGCCTT against Fbxl22	active
GGAUUUUCACAUUGCAUCUTT against Dmrtc1a	inactive
CGUACCAUGUAAAUUCUAUTT against Impa1	inactive
CCAAGAUCGAUCAUUUUGGTT against Gm527	inactive
GGUAAACAUGAUGUCCCUCTT against A630038E17Rik	inactive
GGCUUUAAUCCUAACCCUATT against Zfp3	inactive
GCACCGUGUCGUUGACUUGTT against Trim56	inactive
GGAAUAAUCCCAGAAUCAGTT against Stard6	inactive
GGCAGCAGUUAUUGUGGAUTT against Ly6a	inactive
GCAGGUUAGAGUCACUUGUTT against Trim67	inactive
GCCACUGGUUCACCAUGCATT against Ugt1a9	inactive
GCUGAUGUCUCAACCUAGATT against Zkscan2	inactive
GAUGAAGAAGAGCAGGCUCTT against Gm5168	inactive
GGGUGGACCUUCGGAAUUATT against Mrpl23	inactive
CGAAACACCAGAUGUAUUCTT against Gck	inactive
CGGUAUCUACAUCAUAAACTT against Rpsa	inactive
GCGAGAGAUUCUUUCCCUGTT against Traf6	inactive
GCUAGAGACGAGAAGAUGATT against Ano10	active
GCCAAGCAUAAUCUAAUGATT against Prpf4b	inactive
GGAACUCACGCACAUAUUUTT against Net1	inactive
GGGCUAUGCAGACCUGUACTT against Cyb561	active

====

assay: Components of the Cytosolic LPS Sensing Pathway: Gene Identification via Genome-wide siRNA Screen; conditions: RAW264.7 macrophages, IL-1a HTRF, actives lie on both sides, screened at 100 nM (by protocol), cells primed 5 h with Pam3CSK4 first;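 further: robust z of the log signal after scaling to non-targeting control siRNA wells of the plate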
In all, about 53,000 sequences went through this assay and about 3,700 (7%) were called active.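 The calls were made as follows: active = gene knockdowns whose robust z-score for IL-1 alpha signal is at least 2 or at most -2, so actives lie on both sides; inactive = the rest.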 The sample as a whole holds a higher share of actives than the screen did.
Labels: y (active), n (inactive)

residue_string	category_label
GCCAGGACAAUCUGACUAUTT against Napsa	y
GGAACAAGGUAAAAUACAUTT against Nthl1	y
GCAAGACCGAAGUCACGGATT against Krt19	y
GGGAAUUACAGCACACAAUTT against Treml4	n
GGCGAACAUGCACUUUCACTT against Gramd3	n
GGAAAUGCGCCAUGAGUUGTT against Soga3	n
GCUGUUCAUAUAUCUUGCUTT against Olfr1386	n
GCCUCCUGAAUGAUGACAUTT against Klk1b24	n
GAAAAAAUCUAUCUACCCUTT against Hoxb4	n
GGUCUUCUUUGAUGUGAGGTT against Ppic	n
CCGAUUGAAUUACUCAGCATT against Bcas2	n
GCAAUCUGUCCUUCUGUGATT against Olfr1133	n
GCAGAGCGAUUAUAUGGACTT against Rnpepl1	n
CCACUUUCUAGAAAUCCUATT against Tmem41a	y
GGUAAUCGUGUAUUCAUAUTT against Dph5	n
GGAGACUUAGAAAAAGACUTT against Olfr1426	n
GGCAUGUCCAAGGAAUACUTT against Snrpg	n
GUCUUUGGAAAUCUACUCATT against Olfr1189	n
GGUGCAAGUUUUUCAGUCUTT against Castor2	n
GGCUGAGGAGUGGUACUUUTT against Src	n
GGAUUUGUGUCCAUCGUGCTT against Olfr66	n
GGGAAACUUCUUCAUGGGUTT against Dazap2	n
GGAGAAGAACUAAAACUUATT against Bbs7	n
CGAGCUAUACGGAAAAAAATT against Efcab12	n
CCACAGCCAAAUGCACAAGTT against Platr26	n

====

Assay: Components of the Cytosolic LPS Sensing Pathway: Gene Identification via Genome-wide siRNA Screen;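 further: robust z of the log signal after scaling to non-targeting control siRNA wells of the plate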
Details: RAW264.7 macrophages, IL-1a HTRF, actives lie on both sides, screened at 100 nM (by protocol), cells primed 5 h with Pam3CSK4 first
Method: Non-canonical inflammasome activation by cytosolic LPS is a critical component of the host response to Gram-negative bacterial infection, however we lack a comprehensive understanding of the cellular processes that control this pathway. […] Lipofectamine RNAiMAX Transfection Reagent ([…]; Invitrogen) was added in […] serum-free, antibiotic-free media to plate wells using a Thermo Scientific Matrix WellMate and Microplate Stacker. […] The plates were read on an EnVision plate reader (PerkinElmer). […]
About 3,700 (7%) of roughly 53,000 sequences were called active. The sample as a whole holds a higher share of actives than the screen did.

residue_string	z-score
GCCACAACUUAAUUUUCUGTT against Nav3	-0.305
GGAAAUGAUACCUUACCACTT against Zfp715	0.162
GCUCGUUUGAUGCUGUCUCTT against Prkag1	-1.17
AGAGGAAGCUCGAAAACGGTT against Zrsr2	-0.2
GCCACUGUUGUGUAAACUATT against Rap2a	2.01
GGAUCUUUUCCAAAGAAAUTT against Dusp10	-0.409
GCAGGUACUAUUUGUGACGTT against Olfr30	1.07
GCCUUUCUCGUUCCUAUAGTT against Plgrkt	-2.42
GGAAAGAUCACUCUUGCAUTT against Pon1	-0.58
GCCACCGAACCUAUAAAGCTT against Scd4	0.265
GGGUUGUCGUUCAGUUUACTT against Art2a	2.8
GGUCUCCCUUCAGUAUGAGTT against Cela3b	-0.602

====

experiment: Components of the Cytosolic LPS Sensing Pathway: Gene Identification via Genome-wide siRNA Screen; details: RAW264.7 macrophages, IL-1a HTRF, actives lie on both sides, screened at 100 nM (by protocol), cells primed 5 h with Pam3CSK4 first;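 further: robust z of the log signal after scaling to non-targeting control siRNA wells of the plate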
In all, about 53,000 sequences went through this assay and about 3,700 (7%) were called active. This excerpt belongs to a sample that is enriched for actives.
Decision: z-score >= -0.09 yields class 1, all other cases yield class 0.

residue_string	category_label
GGCAAAUCAUUGAUCAGAATT against Mtrf1	class 0
GGUUGCUCAGAUUCAGAAUTT against Isy1	class 0
GGAAUAUCAGCCAUAAGUUTT against Cplx4	class 1
GCCCAGUACUCCGCUUACATT against Bhlhe23	class 0
GGAGUACUGGGCAUAUAAATT against Slc29a3	class 0
GGAGAAUCUUAGAGAUUAUTT against Pramel1	class 1
GGAUGUGCCUCGGUUGGAUTT against Gulo	class 1
GCACAAAAUUCACUGUUAGTT against Olfr112	class 1
GGCUACAGCAAGAAGACUUTT against Ctsw	class 1
GCAAUGAACUAUGAAGGCATT against Npm1	class 0
GGAGUAAAAAUGAGUAUGATT against Abcg3	class 1
GGUUCUGCCAUGGAGGAAUTT against Svs5	class 1
GGAAAAAUAGGGUGUUUUGTT against Tdg	class 1
GGAUAAGAGAAAAACAGAATT against Ect2	class 1
GGAUUGCAUUAGGAAAGAATT against Fancl	class 1
GGCUCUGUUGAAUGCAACGTT against Slc39a6	class 0
GGCAAGCUGUAAAAGAUGCTT against Noc3l	class 1
GGAUGAGGAGAUAAAGUCUTT against Misp	class 0
GGAUAUCAUCAUGUCUUUCTT against Otop1	class 1
GGCAGAGACCUCAAAACCATT against Selplg	class 0
GGCACAGAUUGUGGUGAAGTT against Ccdc43	class 0
GGUGGAAUGAUAGUGUUCATT against Neurl1b	class 1
GGAGGUGAUGCAGAUGCUGTT against Gpi1	class 1
GGAUUUAACCCUGAGAUACTT against Grpel2	class 1
CGAAUUGAAUUCUACGAACTT against Pmm2	class 1
GGUUUAAGAAAAAAGGAGCTT against Rab43	class 0
GGGCAUCAAGUGUAAAAAATT against Med7	class 0
GGUUUAUUGUAAUGGCUAATT against Olfr1271	class 1
GCUUGACCCUACACUACAGTT against Olfr1121	class 1
CCUGUACCUGCGUAUUCAATT against Grap	class 0
GGCUGAAUCGGCAUUUCCATT against Klhdc3	class 0
GGGAAAAGCAAACACUAAUTT against C1d	class 0
GGCGCACAAUCAAGAUCUUTT against Col4a4	class 1
GGACUACCAUCGACCUUCATT against Nek2	class 1
GCUUAGAUCACCUAAUGACTT against Parp3	class 1
CCUGAUGGGUUACCUAUGCTT against Col25a1	class 0
GGGACCAGAACAAAUACAATT against Klc3	class 1
GGUACCGUCAGUUGUCCUATT against Rnf4	class 0
CGAGGACAAAAAUACCGACTT against Supt6	class 0
CGACCAGCCAUGGUACAAATT against Ptprd	class 0
GGGAUCAAAGAUCAGUUAATT against Pih1d2	class 0
CCACUAUGUUCUGUGGCAATT against Olfr736	class 0
GCUCGCACAGAAGUUACAATT against Lrrc42	class 0
GGAUUUCAAGGGAAUUUGATT against Wbp4	class 0
UGUUCCUAGGUCAGCUACUTT against Olfr1200	class 0
GGAUAAUUGGGAUGAUGACTT against Sem1	class 0
GGCCAUAAAAUGGUAGUAUTT against Trim36	class 1
AGGUCAAUAAAGAGUGUGATT against Fam25c	class 0
GGAAAAAGAGUCCUUCAUGTT against Minar2	class 1

The reported measurements were obtained from PubChem BioAssay AID1508600.
